# credit: patent US9487502B2

Tested on: Alopecurus myosuroides
PROTOCOL_NOTES: Pre-emergence herbicidal activity, ALOMY
Assay type: in vivo
STUDY_CONDITIONS: 1000 g/Ha, sprayed pre-emergence, evaluated after 13 days, scale 0-5
PARAMETER_MEASURED: ALOMY damage score, application pre-emergence
Lab note: jot the number down without any unit.

Find the recorded ALOMY damage score, application pre-emergence belonging to CN1C(=O)N(c2cc(C(C)(C)C)ncn2)C(O)C1C(F)(F)F (stereo not shown) [Example A31] and report it.
3

Query (compound): CCOC1C(O)N(c2cc(C(C)(C)C)ncn2)C(=O)N1CC (stereo not shown) [Example A27] ; field requested: ALOMY damage score, application pre-emergence
0

Which ALOMY damage score, application pre-emergence is listed for CN1C(=O)N(c2cc(C(C)(C)C)ncn2)C(O)C1CC(F)(F)F (stereo not shown) [Example A34] ?
1

# input compound: CON1CC(O)N(c2cc(C(C)(C)C)ncn2)C1=O (stereo not shown) [Example A23] ; wanted: its ALOMY damage score, application pre-emergence
1

Can you look up the measured ALOMY damage score, application pre-emergence of CCCC1C(O)N(c2cc(C(C)(C)C)ncn2)C(=O)N1C (stereo not shown) [Example A17] for me?
4

Find the recorded ALOMY damage score, application pre-emergence belonging to CCN1C(=O)N(c2cc(C(C)(C)C)ncn2)C(O)C1OC (stereo not shown) [Example A26] and report it.
0

# input compound: CCOC1C(O)N(c2cc(C(C)(C)C)ncn2)C(=O)N1C (stereo not shown) [Example A5] ; wanted: its ALOMY damage score, application pre-emergence
4

# lookup: ALOMY damage score, application pre-emergence of COC1C(O)N(c2cc(C(C)(C)C)ncn2)C(=O)N1C (stereo not shown) [Example A11]
3

Which measured ALOMY damage score, application pre-emergence value corresponds to CC1NC(=O)N(c2cc(C(C)(C)C)ncn2)C1O (stereo not shown) [Example A32] ?
1

Which ALOMY damage score, application pre-emergence reading was recorded for the compound CCCOC1C(O)N(c2cc(C(C)(C)C)ncn2)C(=O)N1C (stereo not shown) [Example A10] ?
4

What value of ALOMY damage score, application pre-emergence has been recorded for this entry: COC1C(O)N(c2cc(C(C)(C)C)ncn2)C(=O)N1OC (stereo not shown) [Example A7]
4

Please report the recorded ALOMY damage score, application pre-emergence for COCC1NC(=O)N(c2cc(C(C)(C)C)ncn2)C1O (stereo not shown) [Example A30] .
4

For C=CC1C(O)N(c2cc(C(C)(C)C)ncn2)C(=O)N1C (stereo not shown) [Example A29] , what is its reported ALOMY damage score, application pre-emergence?
4

Look at this compound and give its reported ALOMY damage score, application pre-emergence. CCOC1C(O)N(c2cc(C(C)(C)C)ncn2)C(=O)N1OC (stereo not shown) [Example A8]
5

GET /values?readout=ALOMY damage score, application pre-emergence&item= CC1C(O)N(c2cc(C(C)(C)C)ncn2)C(=O)N1C (stereo not shown) [Example A3]
4

Which measured ALOMY damage score, application pre-emergence value corresponds to CC1C(O)N(c2cc(C(C)(C)C#N)ncn2)C(=O)N1C (stereo not shown) [Example A24] ?
4

Report ALOMY damage score, application pre-emergence for C=CCC1C(O)N(c2cc(C(C)(C)C)ncn2)C(=O)N1C (single isomer, unassigned) [Example A33] please.
4

Consider the compound CON1C(=O)N(c2cc(C(C)(C)F)ncn2)C(O)C1C (stereo not shown) [Example A21] and give its measured ALOMY damage score, application pre-emergence.
3

Can you look up the measured ALOMY damage score, application pre-emergence of CC1C(O)N(c2cc(C(C)(C)F)ncn2)C(=O)N1C (stereo not shown) [Example A20] for me?
3

# get_value(readout='ALOMY damage score, application pre-emergence', item= CON1C(=O)N(c2cc(C(C)(C)C)ncn2)C(O)C1C (stereo not shown) [Example A6] )
4

Would you mind telling me what ALOMY damage score, application pre-emergence value was observed for CON1C(=O)N(c2cc(C(C)(C)C#N)ncn2)C(O)C1C (stereo not shown) [Example A25] ?
4

Could you share which ALOMY damage score, application pre-emergence value was measured for CN1CC(O)N(c2cc(C(C)(C)C)ncn2)C1=O (stereo not shown) [Example A1] ?
4
